Reference source for all entries: ChEMBL document CHEMBL5303300

Tested on: HEK-293T
assay_name: Multiplex assay against HEK293T
Type: toxicity, cell-based
test_parameters: human, 12 h, 1 µM, compound concentration 1 uM, number of replicates 2
property: Population Pyknosed Nuclei (%)
Number in %, nothing else.

Entry Cc1cc(NC(=O)c2cccc(NC(=O)/C=C/CN(C)C)c2)ccc1Nc1nccc(-c2cccnc2)n1 ; Population Pyknosed Nuclei (%) = 9

Entry CN(C)[C@H]1CC[C@H](Nc2ncc3ncnc(Nc4ccc(F)c(Cl)c4)c3n2)CC1 ; Population Pyknosed Nuclei (%) = 7

Entry COc1ccc(-c2cc3c(C)nc(N)nc3n([C@H]3CC[C@H](OCCO)CC3)c2=O)cn1 ; Population Pyknosed Nuclei (%) = 10

More entries:
Entry CS(=O)(=O)c1ccc(NC(=O)c2cccc(COc3ccc(Br)cc3CNCCO)c2)c(Cl)c1.O=CO ; Population Pyknosed Nuclei (%) = 14

Entry Cn1ncc(NC(=O)c2nc(-c3c(F)cccc3F)sc2N)c1N1CC[C@@H](N)[C@H](F)CC1 ; Population Pyknosed Nuclei (%) = 10

Entry C[C@@H](Oc1cc(-n2cnc3ccc(OC4CCN(C)CC4)cc32)sc1C(N)=O)c1ccccc1Cl [GSK-579289A] ; Population Pyknosed Nuclei (%) = 16

Entry CCCN(CCc1cccs1)[C@H]1CCc2c(O)cccc2C1 ; Population Pyknosed Nuclei (%) = 12
